Test system: human lung cancer strain NCI-H441
Assay type: cell-based
Where a SMILES comes first, the peptide text is derived from it. Bridges are numbered along the chain shown (N, C = ends). [ ]: non-standard residue; d: D form. The star is where a group is joined. hPhe(3-Cl-4-CF3) = N[C@@H](CCc1ccc(C(F)(F)F)c(Cl)c1)C(=O)O; NPrPhe(4-Me) = CCCN[C@@H](Cc1ccc(C)cc1)C(=O)O; NMeGly(cPent) = CN[C@H](C(=O)O)C1CCCC1; NMeD = CN[C@@H](CC(=O)O)C(=O)O; NMeL = CN[C@@H](CC(C)C)C(=O)O; Morpholide = C1CN(*)CCO1; Ac5c = NC1(C(=O)O)CCCC1; Sar = CNCC(=O)O
Provide the recorded IC50 for the entries that follow.
State the result as a value with its unit after it.

Reported IC50 for CCOC[C@H]1C(=O)N[C@@H]([C@@H](C)CC)C(=O)N(C2CC2)CC(=O)N(C)[C@H]2C/C=C\CCN(C2=O)[C@@H](CC2CCC(F)(F)CC2)C(=O)N(C)CC(=O)N[C@@H](CCc2ccc(C(F)(F)F)c(OC)c2)C(=O)N2C[C@H](OCC)C[C@H]2C(=O)N(C)C2(CCC2)C(=O)N(C)[C@@H](C(CC)CC)C(=O)N(C)[C@H](C(=O)N(C)C)CC(=O)N1C [PP2351] : what is it?
177 nM

What value of measured IC50 is listed for CCCN1C(=O)CN(C)C(=O)CN(C)C(=O)[C@H]([C@@H](C)CC)NC(=O)[C@H](CC(C)C)N(C)C(=O)C[C@@H](C(=O)N2CCOCC2)N(C)C(=O)[C@H](C2CCCC2)N(C)C(=O)C2(CCCC2)NC(=O)[C@@H]2CCCN2C(=O)[C@H](CCc2ccc(C(F)(F)F)c(Cl)c2)NC(=O)CN(C)C(=O)[C@@H]1Cc1ccc(C)cc1 [PP0059] ([NMeL]I[Sar][Sar][NPrPhe(4-Me)][Sar][hPhe(3-Cl-4-CF3)]P[Ac5c][NMeGly(cPent)][NMeD]-Morpholide; lactam N-11) ?
6.1 nM

Look at this molecule and give its reported IC50. CC[C@H](C)[C@@H]1NC(=O)[C@H](CC2CC2)N(C)C(=O)C[C@@H](C(=O)N2CCCC2)N(C)C(=O)[C@H](C2CCCC2)N(C)C(=O)C2(CCCC2)NC(=O)[C@@H]2C[C@@H](F)CN2C(=O)[C@H](CCc2cc(F)c(C(F)(F)F)c(F)c2)NC(=O)CN(C)C(=O)[C@H](Cc2ccc(C(F)(F)F)cc2)N2CC/C=C\C[C@@H](C2=O)N(C)C(=O)CN(C)C1=O [PP1503]
3.8 nM

* * *

Test system: human lung cancer strain NCI-H441
Type: cell-based
Where a SMILES comes first, the peptide text is derived from it. Bridges are numbered along the chain shown (N, C = ends). [ ]: non-standard residue; d: D form. The star is where a group is joined. hPhe(3-Cl-4-CF3) = N[C@@H](CCc1ccc(C(F)(F)F)c(Cl)c1)C(=O)O; NPrPhe(4-CF3) = CCCN[C@@H](Cc1ccc(C(F)(F)F)cc1)C(=O)O; NMeGly(cPent) = CN[C@H](C(=O)O)C1CCCC1; NMeD = CN[C@@H](CC(=O)O)C(=O)O; NMeL = CN[C@@H](CC(C)C)C(=O)O; Pip = O=C(O)[C@@H]1CCCCN1; Morpholide = C1CN(*)CCO1; Ac5c = NC1(C(=O)O)CCCC1; Aze = O=C(O)[C@@H]1CCN1; Sar = CNCC(=O)O
experimental endpoint: log10 IC50 (log10 of the value in nM)
Scale type: logarithmic (base 10). Underlying IC50 unit: nM.

Need log10 IC50 of CCO[C@@H]1C[C@H]2C(=O)NC3(CCC3)C(=O)N(C)[C@@H](C3CCCC3)C(=O)N(CC)[C@H](C(=O)N(C)C)CC(=O)N(C)[C@@H](CC)C(=O)N[C@@H]([C@@H](C)CC)C(=O)N(C)CC(=O)N(C)[C@H]3CCCCCN(C3=O)[C@@H](Cc3ccc(C(F)(F)F)cc3)C(=O)N(C)CC(=O)N[C@@H](CCc3cc(F)c(C(F)(F)F)c(F)c3)C(=O)N2C1 [PP0633] , thanks.
2.06

Entry CC[C@H](C)[C@@H]1NC(=O)[C@H](CC(C)C)N(C)C(=O)C[C@@H](C(=O)N2CCOCC2)N(C)C(=O)[C@H](C2CCCC2)N(C)C(=O)C2(CCC2)NC(=O)[C@@H]2[C@@H](OC)CCN2C(=O)[C@H](CCc2cc(F)c(C(F)(F)F)c(F)c2)NC(=O)CN(C)C(=O)[C@H](Cc2ccc(C(F)(F)F)cc2)N2CCCCC[C@@H](C2=O)N(C)C(=O)CN(C)C1=O [PP1067] has what log10 IC50?
2.48

What value of log10 IC50 has been recorded for this entry: CCO[C@@H]1C[C@H]2C(=O)NC3(CCC3)C(=O)N(C)[C@@H](C3CCCC3)C(=O)N(C)[C@H](C(=O)N3CCOCC3)CC(=O)N(C)[C@@H](CC(C)C)C(=O)N[C@@H]([C@@H](C)CC)C(=O)N(C)CC(=O)N(C)[C@H]3CCCCCN(C3=O)[C@@H](Cc3ccc(F)c(F)c3)C(=O)N(C)CC(=O)N[C@@H](CCc3cc(F)c(C(F)(F)F)c(F)c3)C(=O)N2C1 [PP0917]
1.40

Can you share its log10 IC50? I mean this compound: CCCN1C(=O)[C@@H]2CCN2C(=O)[C@@H]2CCCCN2C(=O)[C@H]([C@@H](C)CC)NC(=O)[C@H](CC(C)C)N(C)C(=O)C[C@@H](C(=O)N2CCOCC2)N(C)C(=O)[C@H](C2CCCC2)N(C)C(=O)C2(CCCC2)NC(=O)[C@@H]2CCCN2C(=O)[C@H](CCc2ccc(C(F)(F)F)c(Cl)c2)NC(=O)CN(C)C(=O)[C@@H]1Cc1ccc(C(F)(F)F)cc1 [PP0077] ([NMeL]I[Pip][Aze][NPrPhe(4-CF3)][Sar][hPhe(3-Cl-4-CF3)]P[Ac5c][NMeGly(cPent)][NMeD]-Morpholide; lactam N-11)
0.72

What value of measured log10 IC50 is listed for CCO[C@@H]1C[C@H]2C(=O)NC3(CC(C)(C)C3)C(=O)N(C)[C@@H](C3CCCC3)C(=O)N(C)[C@H](C(=O)N(C)CC)CC(=O)N(C)[C@H]3CCC/C=C/c4ccc(cc4)C[C@@H](C(=O)N(C)CC(=O)N[C@@H](CCc4ccc(Cl)c(Cl)c4)C(=O)N2C1)N1CC/C=C\C[C@@H](C1=O)N(C)C(=O)CN(C)C(=O)[C@H]([C@@H](C)CC)NC3=O [PP2577] ?
0.61

Name the recorded log10 IC50 for CC[C@H](C)[C@@H]1NC(=O)[C@H](CC(F)(F)F)N(C)C(=O)C[C@@H](C(=O)N(C)C)N(C)C(=O)[C@H](C2CCCC2)N(C)C(=O)C2(CC(C)(C)C2)NC(=O)[C@@H]2C[C@@H](F)CN2C(=O)[C@H](CCc2cc(F)c(C(F)(F)F)c(F)c2)NC(=O)CN(C)C(=O)[C@H](Cc2ccc(C(F)(F)F)cc2)N2CC/C=C\C[C@@H](C2=O)N(C)C(=O)CN(C)C1=O [PP1688] .
0.18

Record request: log10 IC50 value, item C#CCN1CC(=O)N(C)[C@H]2C/C=C\CCN(C2=O)[C@@H](Cc2ccc(C)cc2)C(=O)N(C)CC(=O)N[C@@H](CCc2ccc(C(F)(F)F)c(OC)c2)C(=O)N2C[C@H](OCC)C[C@H]2C(=O)NC2(CC(C)(C)C2)C(=O)N(C)[C@@H](C2CCCC2)C(=O)N(C)[C@H](C(=O)N(C)C)CC(=O)N(C)[C@@H](CCC)C(=O)N[C@@H]([C@@H](C)CC)C1=O [PP2099]
0.96

Could you tell me which log10 IC50 is on file for CCO[C@@H]1C[C@H]2C(=O)NC3(CC(C)(C)C3)C(=O)N(C)[C@@H](C(CC)CC)C(=O)N(C)[C@H](C(=O)N(C)C)CC(=O)N(C)[C@@H](CC3CCC3)C(=O)N[C@@H]([C@@H](C)CC)C(=O)N(C)CC(=O)N(C)[C@H]3C/C=C\CCN(C3=O)[C@@H](Cc3ccc(C(F)(F)F)cc3)C(=O)N(C)CC(=O)N[C@@H](CCc3ccc(Cl)c(Cl)c3)C(=O)N2C1 [PP2180] ?
1.44

What does the record list as log10 IC50 for CCCN(C)C(=O)[C@@H]1CC(=O)N(C)[C@@H](COCC)C(=O)N[C@@H]([C@@H](C)CC)C(=O)N(C)CC(=O)N(C)[C@H]2C/C=C\CCN(C2=O)[C@@H](Cc2ccc(C(F)(F)F)cc2)C(=O)N(C)CC(=O)N[C@@H](CCc2ccc(C(F)(F)F)c(OC)c2)C(=O)N2C[C@@H](C)C[C@H]2C(=O)NC2(CCC2)C(=O)N(C)[C@@H](C2CCCC2)C(=O)N1C [PP2025] ?
1.13

Look at this compound and give its reported log10 IC50. CCO[C@@H]1C[C@H]2C(=O)NC3(CCCC3)C(=O)N(C)[C@@H](C3CCCC3)C(=O)N(C)[C@H](C(=O)N3CCOCC3)CC(=O)N(C)[C@@H](COC)C(=O)N[C@@H]([C@@H](C)CC)C(=O)N(C)CC(=O)N(C)[C@H]3CCCCCN(C3=O)[C@@H](Cc3ccc(C(F)(F)F)cc3)C(=O)N(C)CC(=O)N[C@@H](CCc3cc(F)c(C(F)(F)F)c(F)c3)C(=O)N2C1 [PP0841]
2.05

What value of measured log10 IC50 is listed for CCO[C@@H]1C[C@H]2C(=O)NC3(CC(C)(C)C3)C(=O)N(C)[C@@H](C3CCCC3)C(=O)N(C)[C@H](C(=O)N(C)C)CC(=O)N(C)[C@@H](CC3CC3)C(=O)N[C@@H]([C@@H](C)CC)C(=O)N(C)CC(=O)N(C)[C@H]3C/C=C\CCN(C3=O)[C@@H](Cc3ccc(C(F)(F)F)cc3)C(=O)N(C)CC(=O)N[C@@H](CCc3cc(F)c(Cl)c(F)c3)C(=O)N2C1 [PP1759] ?
0.79
